# test_context: buffer; pH 7.4; 200.0 µM
What solubility kinetic was measured for each of the following?

query: Value lookup for solubility kinetic; key = CCCCCC1CCC(c2ccc(/C(N)=N/O)cc2)CC1 (centres undefined)
result: < 0.3 µg/mL

query: For the molecule shown here, Cc1cnc(NC(=O)c2c(-c3ccccc3)noc2C)s1 , give the reported solubility kinetic.
result: 39.8 µg/mL

query: What does the data say about its solubility kinetic? Entry: CN(Cc1ccccc1)C(=O)c1ccccc1C(=O)OCC(=O)N(Cc1ccccc1)C(C)(C)C
result: 25.7 µg/mL

query: Entry CC(C)(C)OC(=O)N1CCN(c2ccc([N+](=O)[O-])cc2)CC1 : reported solubility kinetic = ?
result: 1.9 µg/mL

###

# test_context: buffer; pH 7.4; 200.0 µM
measure_name: solubility kinetic (µg/mL)
Give just the numeric value; µg/mL need not be written.

query: Param item = N#Cc1ccc(OCCN2CCc3ccccc3C2)cc1 ; retrieve measured solubility kinetic.
result: 41

query: I have this compound here, Cc1ccc(OCCCN2CCOCC2)cc1 , and I need its recorded solubility kinetic.
result: 26.7

query: Which solubility kinetic is reported for this compound? O=C(COC(=O)c1ccc(Cl)nc1)NCc1ccc(F)cc1
result: 14.3

query: # solubility kinetic lookup, item Cc1cc(Br)c(NC(=O)COC(=O)C2CCCCC2)c(Br)c1
result: 10.1

query: Given the entry COCc1cc(C)nc(OC)c1C(N)=O , report its measured solubility kinetic.
result: 23.9

query: Any idea what solubility kinetic was measured for CC(=O)Nc1ccc(N2CCN(c3ccc(C(F)(F)F)cn3)CC2)nc1 ?
result: 0.8

query: Given O=C(c1cc(F)c(F)cc1Cl)N1CCCc2ccccc21 , state its recorded solubility kinetic.
result: 30.3

query: What solubility kinetic value was documented for this compound, O=C(Nc1ccc(Br)cc1)c1ccc2c(c1)OCO2 ?
result: 1.3

query: Look up solubility kinetic for this compound: CCCCNC(=O)c1cc2cccc([N+](=O)[O-])c2[nH]1
result: 27.3

query: Suppose we examine the compound Cc1cccc(NC(=O)c2ccc(S(=O)(=O)N3CCCC3)cc2)c1C ; what solubility kinetic value has been reported?
result: 2

query: For Cc1ccc(C(=O)Nc2ccccc2Cl)cc1 , what is its reported solubility kinetic?
result: 21

query: Quick one: solubility kinetic of Cc1ccc(NC(=S)N(CCN(C)C)Cc2cccs2)cc1 ?
result: 12.2

query: Query: solubility kinetic; subject: COc1ccc(S(=O)(=O)n2cccc2)c(OC)c1
result: 3.9

query: I am curious: what solubility kinetic value has been reported for Cc1cc(Br)cc2c1NC(=O)C2(O)CC(=O)c1ccco1 (stereo not drawn) ?
result: 47.7

query: Which solubility kinetic reading was recorded for the compound O=[N+]([O-])c1ccc2c(c1)nc1n2CCN(c2ccccc2)C1 ?
result: 6.8

query: For Cc1nc2ccccc2n1Cc1ccccc1 , what is its reported solubility kinetic?
result: 32.9

query: Using the record for CCCn1c(=O)c(C#N)cn(C2CC2)c1=O , report its solubility kinetic.
result: 32.4

query: // lookup solubility kinetic for CCC1(c2ccc(-c3ccccc3)cc2)C(=O)NC(=O)NC1=O
result: 4.6

query: # lookup: solubility kinetic of COc1cc(Cl)c(C)cc1NC(=O)CC1CCCC1
result: 2

###

# test_context: buffer; pH 7.4; 200.0 µM
measure_name: solubility kinetic

query: // solubility kinetic lookup, key: O=C(C[n+]1cc[nH]c1)c1ccc(Cl)cc1.[Cl-]
result: > 38.6 µg/mL

query: Which solubility kinetic value belongs to Cn1c(CO)cnc1SCC(=O)c1ccc(F)cc1 ?
result: > 42 µg/mL

query: Quick one: solubility kinetic for CS(=O)(=O)N1Cc2ccccc2CC1C(=O)OCC(=O)NCc1ccccc1 (centres undefined) ?
result: > 60.4 µg/mL

query: Tell me the measured solubility kinetic of O=C(Nc1ccncc1)c1ccc(Cl)c([N+](=O)[O-])c1 , please.
result: > 41.7 µg/mL

query: solubility kinetic for COc1ccccc1NC(=S)NC(C)C(c1cccs1)N1CCOCC1 (centres undefined) ?
result: > 58.7 µg/mL

query: Which measured solubility kinetic value corresponds to O=C(Nc1nc2ccccc2s1)Nc1ccc(F)cc1F ?
result: < 0.2 µg/mL

query: Please report the recorded solubility kinetic for O=C(Nc1cc2c3c(c1)CC(=O)N3CCC2)C1CCCCC1 .
result: > 44.8 µg/mL

query: May I ask what solubility kinetic has been recorded for CC(CN1C(C)CCCC1C)OC(=O)c1ccc(Cl)cc1 (centres undefined) ?
result: > 46.5 µg/mL

query: What value of solubility kinetic has been reported for the following molecule? O=C(NCc1ccccc1)c1ccc(=O)oc1
result: > 34.4 µg/mL
